Each record here notes measured pIC50.
System: UniProt:P09038
Measurement Notes: Biacore biosensor: inhibition of bFGF binding to immobilised heparin and heparan sulfate
Stated Conditions: immobilised heparan sulfate; read-out: IC50, inhibition of bFGF binding (HS)
pIC50: −log10 of the molar value.
Property Label: pIC50

Compound: O=S(=O)(O)O[C@H]1[C@H](OS(=O)(=O)O)[C@@H](N(CCN([C@H]2C=C[C@@H](OS(=O)(=O)O)[C@@H](OS(=O)(=O)O)[C@@H]2OS(=O)(=O)O)[C@H]2C=C[C@@H](OS(=O)(=O)O)[C@@H](OS(=O)(=O)O)[C@@H]2OS(=O)(=O)O)[C@H]2C=C[C@@H](OS(=O)(=O)O)[C@@H](OS(=O)(=O)O)[C@@H]2OS(=O)(=O)O)C=C[C@H]1OS(=O)(=O)O [Compound 4f]
System: UniProt:P09038
Property Label: pIC50
Qualifier Operator: =
Result Value: 6.62
--
Compound: O=S(=O)(O)O[C@H]1[C@H](OS(=O)(=O)O)[C@@H](N(CCCN([C@H]2C=C[C@@H](OS(=O)(=O)O)[C@@H](OS(=O)(=O)O)[C@@H]2OS(=O)(=O)O)[C@H]2C=C[C@@H](OS(=O)(=O)O)[C@@H](OS(=O)(=O)O)[C@@H]2OS(=O)(=O)O)[C@H]2C=C[C@@H](OS(=O)(=O)O)[C@@H](OS(=O)(=O)O)[C@@H]2OS(=O)(=O)O)C=C[C@H]1OS(=O)(=O)O [Compound 4a]
System: UniProt:P09038
Property Label: pIC50
Qualifier Operator: =
Result Value: 6.96
--
Compound: O=S(=O)(O)OC1C(OS(=O)(=O)O)C(OS(=O)(=O)O)C(N(CCCCCCCCCCN(C2C(OS(=O)(=O)O)C(OS(=O)(=O)O)C(OS(=O)(=O)O)C(OS(=O)(=O)O)C2OS(=O)(=O)O)C2C(OS(=O)(=O)O)C(OS(=O)(=O)O)C(OS(=O)(=O)O)C(OS(=O)(=O)O)C2OS(=O)(=O)O)C2C(OS(=O)(=O)O)C(OS(=O)(=O)O)C(OS(=O)(=O)O)C(OS(=O)(=O)O)C2OS(=O)(=O)O)C(OS(=O)(=O)O)C1OS(=O)(=O)O (stereo not drawn) [Compound 5c]
System: UniProt:P09038
Property Label: pIC50
Qualifier Operator: <
Result Value: 6.60

----------
System: bFGF (Homo sapiens)
Sequence (P09038 134-288 limits assumed, species assumed): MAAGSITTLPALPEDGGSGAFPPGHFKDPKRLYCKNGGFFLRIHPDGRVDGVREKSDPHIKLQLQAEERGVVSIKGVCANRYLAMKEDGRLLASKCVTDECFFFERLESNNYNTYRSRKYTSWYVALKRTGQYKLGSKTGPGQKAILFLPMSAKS
Measurement Notes: Biacore biosensor: inhibition of bFGF binding to immobilised heparin and heparan sulfate
Stated Conditions: immobilised heparan sulfate; read-out: IC50, inhibition of bFGF binding (HS)
pIC50: −log10 of the molar value.

Compound: O=S(=O)(O)OC1C=CC(N(Cc2cccc(CN(C3C=CC(OS(=O)(=O)O)C(OS(=O)(=O)O)C3OS(=O)(=O)O)C3C=CC(OS(=O)(=O)O)C(OS(=O)(=O)O)C3OS(=O)(=O)O)c2)C2C=CC(OS(=O)(=O)O)C(OS(=O)(=O)O)C2OS(=O)(=O)O)C(OS(=O)(=O)O)C1OS(=O)(=O)O (stereo not shown)
System: bFGF (Homo sapiens)
pIC50: 7.64

Compound: O=S(=O)(O)OC1C(OS(=O)(=O)O)C(OS(=O)(=O)O)C(N(CCCCCCN(C2C(OS(=O)(=O)O)C(OS(=O)(=O)O)C(OS(=O)(=O)O)C(OS(=O)(=O)O)C2OS(=O)(=O)O)C2C(OS(=O)(=O)O)C(OS(=O)(=O)O)C(OS(=O)(=O)O)C(OS(=O)(=O)O)C2OS(=O)(=O)O)C2C(OS(=O)(=O)O)C(OS(=O)(=O)O)C(OS(=O)(=O)O)C(OS(=O)(=O)O)C2OS(=O)(=O)O)C(OS(=O)(=O)O)C1OS(=O)(=O)O (stereo not shown)
System: bFGF (Homo sapiens)
pIC50: 7.02

Compound: O=S(=O)(O)OC1C(OS(=O)(=O)O)C(OS(=O)(=O)O)C(N(Cc2cccc(CN(C3C(OS(=O)(=O)O)C(OS(=O)(=O)O)C(OS(=O)(=O)O)C(OS(=O)(=O)O)C3OS(=O)(=O)O)C3C(OS(=O)(=O)O)C(OS(=O)(=O)O)C(OS(=O)(=O)O)C(OS(=O)(=O)O)C3OS(=O)(=O)O)c2)C2C(OS(=O)(=O)O)C(OS(=O)(=O)O)C(OS(=O)(=O)O)C(OS(=O)(=O)O)C2OS(=O)(=O)O)C(OS(=O)(=O)O)C1OS(=O)(=O)O (stereo not shown)
System: bFGF (Homo sapiens)
pIC50: 7.42

Compound: O=S(=O)(O)OC[C@H]1O[C@@](COS(=O)(=O)O)(O[C@H]2O[C@H](COS(=O)(=O)O)[C@@H](OS(=O)(=O)O)[C@H](OS(=O)(=O)O)[C@H]2OS(=O)(=O)O)[C@@H](OS(=O)(=O)O)[C@@H]1OS(=O)(=O)O [Sucrose octasulfate, reference compound]
System: bFGF (Homo sapiens)
pIC50: 6.03

----------
System: UniProt P10145
Sequence (P10145 21-99, species assumed): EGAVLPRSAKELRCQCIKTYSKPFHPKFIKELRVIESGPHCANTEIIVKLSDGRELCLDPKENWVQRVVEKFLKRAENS
Measurement Notes: Biacore biosensor: inhibition of IL-8 binding to immobilised heparin and heparan sulfate
Stated Conditions: immobilised heparan sulfate; inhibitor 1.0 μM, IL-8 0.068 μM; read-out: Inhibition of binding of IL-8 (HS)

Given Smiles: O=S(=O)(O)O[C@H]1[C@H](OS(=O)(=O)O)[C@@H](N(CCCCCCCCCCN([C@H]2C=C[C@@H](OS(=O)(=O)O)[C@@H](OS(=O)(=O)O)[C@@H]2OS(=O)(=O)O)[C@H]2C=C[C@@H](OS(=O)(=O)O)[C@@H](OS(=O)(=O)O)[C@@H]2OS(=O)(=O)O)[C@H]2C=C[C@@H](OS(=O)(=O)O)[C@@H](OS(=O)(=O)O)[C@@H]2OS(=O)(=O)O)C=C[C@H]1OS(=O)(=O)O
Units Label: %
inhibition at 1 µM: 77
--
Given Smiles: O=S(=O)(O)O[C@H]1[C@H](OS(=O)(=O)O)[C@@H](N(CCN([C@H]2C=C[C@@H](OS(=O)(=O)O)[C@@H](OS(=O)(=O)O)[C@@H]2OS(=O)(=O)O)[C@H]2C=C[C@@H](OS(=O)(=O)O)[C@@H](OS(=O)(=O)O)[C@@H]2OS(=O)(=O)O)[C@H]2C=C[C@@H](OS(=O)(=O)O)[C@@H](OS(=O)(=O)O)[C@@H]2OS(=O)(=O)O)C=C[C@H]1OS(=O)(=O)O
Units Label: %
inhibition at 1 µM: 38
--
Given Smiles: O=S(=O)(O)OC(CN([C@H]1C=C[C@@H](OS(=O)(=O)O)[C@@H](OS(=O)(=O)O)[C@@H]1OS(=O)(=O)O)[C@H]1C=C[C@@H](OS(=O)(=O)O)[C@@H](OS(=O)(=O)O)[C@@H]1OS(=O)(=O)O)CN([C@H]1C=C[C@@H](OS(=O)(=O)O)[C@@H](OS(=O)(=O)O)[C@@H]1OS(=O)(=O)O)[C@H]1C=C[C@@H](OS(=O)(=O)O)[C@@H](OS(=O)(=O)O)[C@@H]1OS(=O)(=O)O
Units Label: %
inhibition at 1 µM: 46
--
Given Smiles: O=S(=O)(O)O[C@H]1[C@H](OS(=O)(=O)O)[C@@H](N(CCCCCCCN([C@H]2C=C[C@@H](OS(=O)(=O)O)[C@@H](OS(=O)(=O)O)[C@@H]2OS(=O)(=O)O)[C@H]2C=C[C@@H](OS(=O)(=O)O)[C@@H](OS(=O)(=O)O)[C@@H]2OS(=O)(=O)O)[C@H]2C=C[C@@H](OS(=O)(=O)O)[C@@H](OS(=O)(=O)O)[C@@H]2OS(=O)(=O)O)C=C[C@H]1OS(=O)(=O)O
Units Label: %
inhibition at 1 µM: 54

----------
System: VEGF (Homo sapiens, UniProt P15692)
Sequence (P15692 27-191 isoform P15692-4): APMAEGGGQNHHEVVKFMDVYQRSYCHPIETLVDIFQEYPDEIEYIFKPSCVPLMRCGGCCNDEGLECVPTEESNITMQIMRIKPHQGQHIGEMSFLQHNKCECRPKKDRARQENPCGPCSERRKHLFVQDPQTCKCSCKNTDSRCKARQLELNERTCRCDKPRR
Measurement Notes: Biacore biosensor: inhibition of VEGF binding to immobilised heparin and heparan sulfate
Stated Conditions: immobilised heparin; inhibitor 0.034 μM, VEGF 0.025 μM; read-out: Inhibition of binding of VEGF (Hep)
Description: Assays were performed using a Biacore™ 2000 optical biosensor obtained from Biacore AB, Uppsala, Sweden. The biosensor was operated in accordance with the manufacturer's instructions. […] Binding of growth factor or effector compound to the heparin or heparan sulfate was then monitored for approximately 5 minutes with the biosensor. […]
Property Label: inhibition at 0.034 µM (%)

Compound: O=S(=O)(O)O[C@H]1[C@H](OS(=O)(=O)O)[C@@H](N(CCN([C@H]2C=C[C@@H](OS(=O)(=O)O)[C@@H](OS(=O)(=O)O)[C@@H]2OS(=O)(=O)O)[C@H]2C=C[C@@H](OS(=O)(=O)O)[C@@H](OS(=O)(=O)O)[C@@H]2OS(=O)(=O)O)[C@H]2C=C[C@@H](OS(=O)(=O)O)[C@@H](OS(=O)(=O)O)[C@@H]2OS(=O)(=O)O)C=C[C@H]1OS(=O)(=O)O [Compound 4f]
Property Label: inhibition at 0.034 µM
Units Label: %
Result Value: 0
//
Compound: O=S(=O)(O)OC(CN([C@H]1C=C[C@@H](OS(=O)(=O)O)[C@@H](OS(=O)(=O)O)[C@@H]1OS(=O)(=O)O)[C@H]1C=C[C@@H](OS(=O)(=O)O)[C@@H](OS(=O)(=O)O)[C@@H]1OS(=O)(=O)O)CN([C@H]1C=C[C@@H](OS(=O)(=O)O)[C@@H](OS(=O)(=O)O)[C@@H]1OS(=O)(=O)O)[C@H]1C=C[C@@H](OS(=O)(=O)O)[C@@H](OS(=O)(=O)O)[C@@H]1OS(=O)(=O)O [Compound 4l]
Property Label: inhibition at 0.034 µM
Units Label: %
Result Value: 0
//
Compound: O=S(=O)(O)O[C@H]1[C@H](OS(=O)(=O)O)[C@@H](N(CCCCCCCN([C@H]2C=C[C@@H](OS(=O)(=O)O)[C@@H](OS(=O)(=O)O)[C@@H]2OS(=O)(=O)O)[C@H]2C=C[C@@H](OS(=O)(=O)O)[C@@H](OS(=O)(=O)O)[C@@H]2OS(=O)(=O)O)[C@H]2C=C[C@@H](OS(=O)(=O)O)[C@@H](OS(=O)(=O)O)[C@@H]2OS(=O)(=O)O)C=C[C@H]1OS(=O)(=O)O [Compound 4h]
Property Label: inhibition at 0.034 µM
Units Label: %
Result Value: 68
//
Compound: O=S(=O)(O)O[C@H]1[C@H](OS(=O)(=O)O)[C@@H](N(CCCCCCCCCCN([C@H]2C=C[C@@H](OS(=O)(=O)O)[C@@H](OS(=O)(=O)O)[C@@H]2OS(=O)(=O)O)[C@H]2C=C[C@@H](OS(=O)(=O)O)[C@@H](OS(=O)(=O)O)[C@@H]2OS(=O)(=O)O)[C@H]2C=C[C@@H](OS(=O)(=O)O)[C@@H](OS(=O)(=O)O)[C@@H]2OS(=O)(=O)O)C=C[C@H]1OS(=O)(=O)O [Compound 4c]
Property Label: inhibition at 0.034 µM
Units Label: %
Result Value: 62
//
Compound: O=S(=O)(O)O[C@H]1[C@H](OS(=O)(=O)O)[C@@H](N(CCCCCCCCN([C@H]2C=C[C@@H](OS(=O)(=O)O)[C@@H](OS(=O)(=O)O)[C@@H]2OS(=O)(=O)O)[C@H]2C=C[C@@H](OS(=O)(=O)O)[C@@H](OS(=O)(=O)O)[C@@H]2OS(=O)(=O)O)[C@H]2C=C[C@@H](OS(=O)(=O)O)[C@@H](OS(=O)(=O)O)[C@@H]2OS(=O)(=O)O)C=C[C@H]1OS(=O)(=O)O [Compound 4i]
Property Label: inhibition at 0.034 µM
Units Label: %
Result Value: 70
//
Compound: O=S(=O)(O)O[C@H]1[C@H](OS(=O)(=O)O)[C@@H](N(CCCCN([C@H]2C=C[C@@H](OS(=O)(=O)O)[C@@H](OS(=O)(=O)O)[C@@H]2OS(=O)(=O)O)[C@H]2C=C[C@@H](OS(=O)(=O)O)[C@@H](OS(=O)(=O)O)[C@@H]2OS(=O)(=O)O)[C@H]2C=C[C@@H](OS(=O)(=O)O)[C@@H](OS(=O)(=O)O)[C@@H]2OS(=O)(=O)O)C=C[C@H]1OS(=O)(=O)O [Compound 4g]
Property Label: inhibition at 0.034 µM
Units Label: %
Result Value: 21
//
Compound: O=S(=O)(O)O[C@H]1[C@H](OS(=O)(=O)O)[C@@H](N(CCCN([C@H]2C=C[C@@H](OS(=O)(=O)O)[C@@H](OS(=O)(=O)O)[C@@H]2OS(=O)(=O)O)[C@H]2C=C[C@@H](OS(=O)(=O)O)[C@@H](OS(=O)(=O)O)[C@@H]2OS(=O)(=O)O)[C@H]2C=C[C@@H](OS(=O)(=O)O)[C@@H](OS(=O)(=O)O)[C@@H]2OS(=O)(=O)O)C=C[C@H]1OS(=O)(=O)O [Compound 4a]
Property Label: inhibition at 0.034 µM
Units Label: %
Result Value: 5
//
Compound: O=S(=O)(O)O[C@H]1[C@H](OS(=O)(=O)O)[C@@H](N(CCCCCCCCCN([C@H]2C=C[C@@H](OS(=O)(=O)O)[C@@H](OS(=O)(=O)O)[C@@H]2OS(=O)(=O)O)[C@H]2C=C[C@@H](OS(=O)(=O)O)[C@@H](OS(=O)(=O)O)[C@@H]2OS(=O)(=O)O)[C@H]2C=C[C@@H](OS(=O)(=O)O)[C@@H](OS(=O)(=O)O)[C@@H]2OS(=O)(=O)O)C=C[C@H]1OS(=O)(=O)O [Compound 4j]
Property Label: inhibition at 0.034 µM
Units Label: %
Result Value: 64
//
Compound: O=S(=O)(O)O[C@H]1[C@H](OS(=O)(=O)O)[C@@H](N(CCCCCN([C@H]2C=C[C@@H](OS(=O)(=O)O)[C@@H](OS(=O)(=O)O)[C@@H]2OS(=O)(=O)O)[C@H]2C=C[C@@H](OS(=O)(=O)O)[C@@H](OS(=O)(=O)O)[C@@H]2OS(=O)(=O)O)[C@H]2C=C[C@@H](OS(=O)(=O)O)[C@@H](OS(=O)(=O)O)[C@@H]2OS(=O)(=O)O)C=C[C@H]1OS(=O)(=O)O [Compound 4k]
Property Label: inhibition at 0.034 µM
Units Label: %
Result Value: 41

Reference source: patent US7173019B2
